B1: ZER1 (parent)
chain: PILRLLPQGISPVSQHWATWALYN

- Variants of: B1
- experimental.protocol: protein stability index of a GFP-peptide fusion (GPS, HEK-293T) (PSI 1-6); higher = more stable;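 further: lentivirally expressed fusions sorted by FACS into six bins by GFP to DsRed ratio, PSI derived from sequencing read proportions per bin multiplied by bin number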
- condition.details: c terminus: a fixed tail appended
The label depends only on protein stability index: MET if it is at least 2, NOT MET if it is smaller.

>>> df
    mutation  class_label
 0       R4T          MET
 1      W17I          MET
 2      W17R          MET
 3       L6Y          MET
 4       P7T          MET
 5      P12Q          MET
 6      A18N          MET
 7      W20I          MET
 8      Q15K          MET
 9      H16K      NOT MET
10      A21M          MET
11      W17A      NOT MET
12      I10L          MET
13      W20S          MET
14      W17D      NOT MET
15       L5G          MET
16      S11P      NOT MET
17       P1T          MET
18      N24T          MET
19      W17L          MET
20       I2Q      NOT MET
21       Q8W          MET
22      A18H          MET
23      A18Y          MET
24      S11V          MET
25      S14T      NOT MET
26       R4F          MET
27      L22E      NOT MET
28      Q15G      NOT MET
29      S14C          MET
30       P7M          MET
31      V13W      NOT MET
32      W17H      NOT MET
33       L6Q      NOT MET
34      N24D          MET
35      W17P      NOT MET
36      V13T          MET
37      P12V          MET
38      Y23K      NOT MET
39       L3I      NOT MET
40      P12H          MET
41      S11E          MET
42      W17Y          MET
43       P7V      NOT MET
44      Y23I          MET
45       R4H          MET
46      L22A          MET
47      V13I      NOT MET
48       Q8H      NOT MET
49      P12A          MET
50      Y23P      NOT MET
51       R4W          MET
52      Q15T          MET
53      T19A          MET
54      T19K          MET
55       L5H          MET
56      W20M          MET
57       L3P      NOT MET
58       L5A      NOT MET
59      N24M          MET
60      S14V          MET
61      L22H      NOT MET
62      V13C          MET
63       P1S          MET
64      A21Y          MET
65      A18G          MET
66      W17N      NOT MET
67       Q8K          MET
68       L6C          MET
69      N24P          MET
70      L22R          MET
71      I10E          MET
72       R4Y          MET
73       L3E      NOT MET
74      I10M          MET
75       L5V          MET
76      Y23R      NOT MET
77      T19P          MET
78       L3T          MET
79       Q8R          MET
80      L22P      NOT MET
81      A21D          MET
82       R4N          MET
83      Y23W          MET
84       L3H      NOT MET
85      A21F          MET
86      W20E      NOT MET
